Before we begin, note that these IC50 values for Amine oxidase [flavin-containing] A (Rattus norvegicus, UniProt P21396) originate from several publications.
Binning of IC50 into classes: one: < 6 µM; two: ≥ 6 µM and < 20 µM; three: ≥ 20 µM

COMPOUND	LABEL_CLASS
O=C(O)/C=C/C=C/c1ccc2c(c1)OCO2	two
Oc1ccc(C2=NN(C(=S)Nc3ccccc3)C(c3ccc(O)cc3)C2)cc1 (centres undefined)	three
Cn1c(N/N=C(/C=C/c2ccc(Br)cc2)c2ccccc2)nc2ccccc2c1=O	three
c1ccc(Cc2nc3ccccc3nc2NCCN2CCOCC2)cc1	one
NC(=O)CNCc1ccc(OCc2ccccc2)cc1	two
Cn1c(N2N=C(c3ccccc3)CC2c2ccccc2)nc2ccccc2c1=O (centres undefined)	two
Cc1ccccc1-c1cc2c(nn1)-c1ccccc1C2=O	two
CNC(=O)/C=C1/COc2cc(OCc3cccc(Cl)c3)ccc21	one
O=C1c2ccccc2-c2nnc(-c3ccc([N+](=O)[O-])cc3)cc21	three
Cc1ccc(C(=O)NCCCN2CCOCC2)cn1	three
Cn1c(N/N=C(/C=C/c2cccs2)c2ccc(Cl)cc2)nc2ccccc2c1=O	three
c1ccc(COc2ccc3c(c2)OCC3)cc1	three
O=C1c2ccccc2-c2nnccc21	three
CNC(=O)/C=C1/COc2c1ccc(OS(=O)(=O)c1cccc(Cl)c1)c2C	one
OCCCn1nnc(-c2ccc(-c3ccccc3)cc2)n1	one
C[C@H](NCc1cc(=O)oc2cc(OCc3ccccc3)ccc12)C(N)=O	three
c1ccc2c(c1)nnc1c3ccccc3[nH]c21	three
O=C1c2ccccc2-c2ncnc(-c3ccccc3)c21	three
CNC(=O)Cc1coc2cc(OS(=O)(=O)c3cccc(Cl)c3)ccc12	one
Cc1nnc2c(c1-c1ccccc1)C(=O)c1ccccc1-2	three
CNC(=O)Cc1cc(=O)oc2cc(OS(=O)(=O)c3cccc(Cl)c3)ccc12	one
COc1cc(C2CC(c3ccccc3O)=NN2C(=S)Nc2ccccc2C)ccc1O (centres undefined)	three
COc1c2occc2cc2ccc(=O)oc12	three
CCCNC(=O)/C=C/C=C/c1ccc2c(c1)OCO2	one
O=C1c2ccccc2-c2nnc(-c3ccc(O)cc3)cc21	three
Cc1c(C)c2ccc(OCc3csc(C(C)C)n3)cc2oc1=O	two
COc1ccc2c(C)c(C)c(=O)oc2c1	one
Cc1ccc(C(/C=C/c2ccco2)=N\Nc2nc3ccccc3c(=O)n2C)cc1	three
CCCCNC(=O)/C=C/C=C/c1ccc2c(c1)OCO2	three
Cc1ccc(C(=O)NCCN2CCOCC2)cn1	three
Cc1c(C)c2ccc(/C=C/c3ccccc3)cc2oc1=O	one
C[C@@H](NCc1ccc(OCc2cccc(Cl)c2)cc1)C(N)=O	three
CCN(CC)C(=O)CCCCc1ccc2c(c1)OCO2	one
Cc1c(C)c2ccc(SCc3ccccc3)cc2oc1=O	two
COc1ccccc1NC(=S)N1N=C(c2ccccc2O)CC1c1ccccc1O (centres undefined)	three
COc1ccc(-c2nnn(CCC#N)n2)cc1	two
O=c1ccoc2ccc(OCc3ccccc3)cc12	two
O=C1c2ccccc2-c2nnc(-c3ccccn3)cc21	three
NNc1nc2ccccc2nc1Cc1ccc(Cl)cc1	one
Cc1cc(=O)oc2cc(OC3CCCC3=O)ccc12 (centres undefined)	one
NCc1ccncc1N	three
CC(C(N)=O)c1cc(=O)oc2cc(OCc3ccccc3)ccc12 (racemic)	two
O=C1c2ccccc2-c2nncc(-c3ccccc3)c21	three
O=C1c2ccccc2-c2nnc(-c3ccccc3)cc21	three
N#CCCn1nnc(-c2ccc(OCc3ccccc3I)cc2)n1	three
NCCCNC(=O)c1ccc(Cl)cc1	three
NC(=O)CCc1cc(=O)oc2cc(OCc3cccc(Cl)c3)ccc12	one
CNC(=O)/C=C1/COc2cc(OS(=O)(=O)c3ccccc3)ccc21	one
